- Test system: Caco-2
- Test: Effect on integrity in human Caco-2 cell monolayers assessed as transepithelial resistance by epithelial voltohmmeter relative to control
- Type: ADME, cell-based
- Design: concentration or dose not given beside the values
Where a SMILES comes first, the peptide text is derived from it. [ ]: non-standard residue; d: D form. Met(O) = CS(=O)CC[C@H](N)C(=O)O; 2Thi = N[C@@H](Cc1cccs1)C(=O)O; Tle = CC(C)(C)[C@H](N)C(=O)O; Nva = CCC[C@H](N)C(=O)O
Test readout: Activity (%)
Could you give me the number in %? Just the number is fine.

Known Activity results, listed for orientation:
Molecule | Activity (%)
CC[C@H](C)[C@H](NC(=O)[C@@H](NC(=O)[C@@H](N)Cc1ccccc1)C(C)(C)C)C(=O)NCC(=O)N[C@@H](CCCNC(=N)N)C(=O)N[C@@H](CC(C)C)C(=O)O (H-F[Tle]IGRL-OH) | 35
CC[C@H](C)[C@H](NC(=O)[C@H](Cc1cccs1)NC(=O)[C@@H](N)Cc1ccccc1)C(=O)NCC(=O)N[C@@H](CCCNC(=N)N)C(=O)N[C@@H](CC(C)C)C(=O)O (H-F[2Thi]IGRL-OH) | 119
CC[C@H](C)[C@H](NC(=O)[C@H](CC[S+](C)[O-])NC(=O)[C@@H](N)Cc1ccccc1)C(=O)NCC(=O)N[C@@H](CCCNC(=N)N)C(=O)N[C@@H](CC(C)C)C(=O)O (stereo not given in full) (H-F[Met(O)]IGRL-OH) | 106
CC[C@H](C)[C@H](NC(=O)[C@H](CS)NC(=O)[C@@H](N)Cc1ccccc1)C(=O)NCC(=O)N[C@@H](CCCNC(=N)N)C(=O)O (H-FCIGR-OH) | 21

Note: attention shifts to another entry.
q: Return value of Activity for input CCC[C@H](NC(=O)[C@@H](N)Cc1ccccc1)C(=O)N[C@H](C(=O)NCC(=O)N[C@@H](CCCNC(=N)N)C(=O)N[C@@H](CC(C)C)C(=O)O)[C@@H](C)CC (H-F[Nva]IGRL-OH) , no commentary.
a: 98

----------
- System: Caco-2
- Test: Effect on integrity in human Caco-2 cell monolayers assessed as transepithelial resistance by epithelial voltohmmeter relative to control
- Assay type: ADME, cell-based
- Parameters: concentration or dose not given beside the values
Where a SMILES comes first, the peptide text is derived from it. [ ]: non-standard residue; d: D form. Phe(3-Me) = Cc1cccc(C[C@H](N)C(=O)O)c1; Met(O2) = CS(=O)(=O)CC[C@H](N)C(=O)O
Test readout: Activity (%)
Could you give me the number in %? Just the number is fine.

Molecule | Activity / %
CC[C@H](C)[C@H](NC(=O)[C@H](CS)NC(=O)[C@@H](N)Cc1ccccc1)C(=O)NCC(=O)N[C@@H](CCCNC(=N)N)C(=O)N[C@@H](CC(C)C)C(=O)O (H-FCIGRL-OH) | 11

q: Return value of Activity for input CC[C@H](C)[C@H](NC(=O)[C@@H](NC(=O)[C@@H](N)Cc1ccccc1)C(C)C)C(=O)NCC(=O)N[C@@H](CCCNC(=N)N)C(=O)N[C@@H](CC(C)C)C(=O)O (H-FVIGRL-OH) , no commentary.
a: 50

q: Return value of Activity for input CC[C@H](C)[C@H](NC(=O)[C@H](Cc1cccc(C)c1)NC(=O)[C@@H](N)Cc1ccccc1)C(=O)NCC(=O)N[C@@H](CCCNC(=N)N)C(=O)N[C@@H](CC(C)C)C(=O)O (H-F[Phe(3-Me)]IGRL-OH) , no commentary.
a: 101

q: Return value of Activity for input CC[C@H](C)[C@H](NC(=O)[C@H](CCCCN)NC(=O)[C@@H](N)Cc1ccccc1)C(=O)NCC(=O)N[C@@H](CCCNC(=N)N)C(=O)N[C@@H](CC(C)C)C(=O)O (H-FKIGRL-OH) , no commentary.
a: 110

q: Return value of Activity for input CC[C@H](C)[C@H](NC(=O)[C@H](CCC(N)=O)NC(=O)[C@@H](N)Cc1ccccc1)C(=O)NCC(=O)N[C@@H](CCCNC(=N)N)C(=O)N[C@@H](CC(C)C)C(=O)O (H-FQIGRL-OH) , no commentary.
a: 112

q: Return value of Activity for input CC[C@H](C)[C@H](N)C(=O)NCC(=O)N[C@@H](CCCNC(=N)N)C(=O)N[C@@H](CC(C)C)C(=O)O (H-IGRL-OH) , no commentary.
a: 70

q: Return value of Activity for input CC[C@H](C)[C@H](NC(=O)[C@H](CCS(C)(=O)=O)NC(=O)[C@@H](N)Cc1ccccc1)C(=O)NCC(=O)N[C@@H](CCCNC(=N)N)C(=O)N[C@@H](CC(C)C)C(=O)O (H-F[Met(O2)]IGRL-OH) , no commentary.
a: 110
